experiment: Toxicity liver stage against HepG2, at 10uM; assay type: cell-based; set-up: test concentration 10 uM, cell line HepG2-A16-CD81EGFP; details: human, HepG2-A16-CD81EGFP cells; read-out: INHIBITION
Property label: cytotoxicity at 10 µM (%)
Kindly provide the numeric value in % only, without the unit symbol.

- O=C1NC2(CCN(Cc3cccnc3)CC2)CC1c1cccnc1 (stereo unspecified): 3.14

Kindly consider the entry below.
Ask: Which cytotoxicity at 10 µM value belongs to CC(C(=O)N1CCCCCC1)N1CCN(c2nccs2)CC1 (stereo unspecified) ?
Result: 11.7

###

experiment: Toxicity liver stage against HepG2, at 10uM; type: cell-based; design: test concentration 10 uM, cell line HepG2-A16-CD81EGFP; conditions: human, HepG2-A16-CD81EGFP cells; read-out: INHIBITION
Property label: cytotoxicity at 10 µM (%)
Kindly provide the numeric value in % only, without the unit symbol.

• CCOCc1nc2c(c(N3CCCn4nc(C)cc4C3)n1)CCNCC2 = 11.3
• CC(C)n1ccc(CN2CCN(c3cc(NC4CC4)nc(N)n3)CC2)c1 = -1.45
• COc1cc(C(=O)O)ccc1OCC(=O)NC(C)c1ccc(F)cc1 (stereo not given) = -1.4
• O=C(NCc1ccccn1)[C@H]1COC[C@H]2CN(CC3CC3)C[C@H]21 = -80.8
• CCn1nc(C)c(-c2cncn2CCN(C)C2CCCC2)c1C = 4.83
• CC(C)c1noc(CN2CCOCC2C)n1 (stereo not given) = 3.95
• C[C@@H]1CN(Cc2ccoc2)C[C@]12CCN(CC(=O)N(C)C)C2=O = 2.11
• Cc1cc(NC(=O)NCC2(O)CCCC2)ccn1 = -6.36

Ask: Which cytotoxicity at 10 µM value belongs to `Cn1c(CO)nnc1SCc1c(F)cccc1Br` ?
Result: -41.2

Ask: Same lookup for Cc1nc(C)n(CC2CN(Cc3ccc4c(c3)OCCO4)CCO2)n1 (stereo not given) , please.
Result: -3.63
